- target.desc: Chk-1 kinase (Homo sapiens (Human))
- Sequence (O14757 whole entry): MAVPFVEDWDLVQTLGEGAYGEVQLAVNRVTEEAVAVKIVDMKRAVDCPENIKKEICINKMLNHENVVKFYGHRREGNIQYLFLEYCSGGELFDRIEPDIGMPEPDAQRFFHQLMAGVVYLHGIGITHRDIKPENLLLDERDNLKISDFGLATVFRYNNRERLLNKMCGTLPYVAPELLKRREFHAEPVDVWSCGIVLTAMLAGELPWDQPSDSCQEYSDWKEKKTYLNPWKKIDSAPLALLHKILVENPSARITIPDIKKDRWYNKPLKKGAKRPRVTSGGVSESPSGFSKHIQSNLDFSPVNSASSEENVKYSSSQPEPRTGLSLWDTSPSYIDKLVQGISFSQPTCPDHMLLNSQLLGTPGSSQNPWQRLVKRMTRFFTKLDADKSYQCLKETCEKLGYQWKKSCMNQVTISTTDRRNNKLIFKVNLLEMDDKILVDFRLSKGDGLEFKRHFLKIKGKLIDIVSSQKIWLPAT
- assay.details: Chk-1 Kinase Inhibiting Activity (33P-ATP filter assay, CHKtide substrate)
- Type: biochemical
- experimental.conditions: against Chk-1 kinase; read-out: IC50
Overview of recorded pIC50 for various molecules
In textbook form, pIC50 equals minus log to base ten of the concentration in mol/L.

Some solved entries appear below for comparison.
COc1cc(CN[C@@H]2CCOC2)ccc1-c1cc(Nc2cnc(C#N)cn2)n[nH]1: 10.00
CCN1CCN(c2ccc(-c3cc(Nc4cnc(C#N)cn4)n[nH]3)c(OC)c2)CC1: 9.72
COc1cc(NCC2CCOCC2)ccc1-c1cc(Nc2cnc(C#N)cn2)n[nH]1: 9.46
COc1cc(CNCCN2CCOCC2)ccc1-c1cc(Nc2cnccn2)n[nH]1: 7.96
CN1CCC(c2ccc(-c3cc(Nc4cnc(C#N)cn4)n[nH]3)c(F)c2)CC1: 8.62

Per the record, COc1cc(C2CCNCC2)c(Cl)cc1-c1cc(Nc2cnc(C#N)cn2)n[nH]1 has pIC50 of 8.54

Per the record, COc1cc(OCC2CCOCC2)ccc1-c1cc(Nc2cnc(C#N)cn2)n[nH]1 has pIC50 of 9.26

Per the record, COc1cc(C2CCNCC2)ccc1-c1cc(Nc2ccc(C#N)c(F)c2)n[nH]1 has pIC50 of 7.44

###

- target.desc: Chk-1 kinase (Homo sapiens (Human))
- assay.details: Chk-1 Kinase Inhibiting Activity (33P-ATP filter assay, CHKtide substrate)
- Assay type: biochemical
- experimental.conditions: against Chk-1 kinase; read-out: IC50
- Protocol: Chk-1 Kinase Inhibiting Activity The compounds of the invention were tested for activity against Chk-1 kinase using the materials and protocols set out below. Base Reaction buffer: 20 mM Hepes (pH 7.5), 10 mM MgCl2, 1 mM EGTA, 0.02% Brij35, 0.02 mg/ml BSA, 0.1 mM Na3VO4, 2 mM DTT, 1% DMSO […] From the results obtained by following the above protocol, the IC50 values against Chk-1 kinase of each of the compounds of Examples 1-153 were determined and these are shown in Table 3.
Where a name gives a salt, the structure may show the parent alone.
outcome.measure: IC50 (nM)
Reply with just the number (in nM).

COc1cc(C2CCNCC2)ccc1-c1cc(Nc2cnc(C#N)cn2)n[nH]1: 0.29

Field IC50 (Chk-1 kinase (Homo sapiens (Human))), entry COc1cc(O[C@H]2CCN(C)C2)ccc1-c1cc(Nc2cnc(C#N)cn2)n[nH]1 : 0.21

Field IC50 (Chk-1 kinase (Homo sapiens (Human))), entry COc1cc(CNCc2ccccc2)ccc1-c1cc(Nc2cnc(C#N)cn2)n[nH]1 [Example 3, hydrochloride] : 0.21

Field IC50 (Chk-1 kinase (Homo sapiens (Human))), entry COc1cc(OC[C@H]2CCCN2C)ccc1-c1cc(Nc2cnc(C#N)cn2)n[nH]1 [Example 103, hydrochloride] : 0.109

Field IC50 (Chk-1 kinase (Homo sapiens (Human))), entry COc1cc(CNc2ccccn2)ccc1-c1cc(Nc2cnc(C#N)cn2)n[nH]1 : 0.37

Field IC50 (Chk-1 kinase (Homo sapiens (Human))), entry COc1cc(C2CCN(C)CC2)ccc1-c1cc(Nc2ccc(C#N)c(F)c2)n[nH]1 : 17

Field IC50 (Chk-1 kinase (Homo sapiens (Human))), entry CCN1CCC(F)(c2ccc(-c3cc(Nc4cnc(C#N)cn4)n[nH]3)c(OC)c2)CC1 : 0.25

Field IC50 (Chk-1 kinase (Homo sapiens (Human))), entry COc1cc(CCNCc2ccccc2)ccc1-c1cc(Nc2cnc(C#N)cn2)n[nH]1 [Example 4, hydrochloride] : 0.19

Field IC50 (Chk-1 kinase (Homo sapiens (Human))), entry COc1cc(CNCC(C)C)ccc1-c1cc(Nc2cnc(C#N)cn2)n[nH]1 : 0.012

Field IC50 (Chk-1 kinase (Homo sapiens (Human))), entry COc1cc(C2CCNCC2)ccc1-c1cc(Nc2ccc(C#N)nc2)n[nH]1 : 0.46

Field IC50 (Chk-1 kinase (Homo sapiens (Human))), entry COc1cc(N2CCCN(C)CC2)ccc1-c1cc(Nc2cnc(C#N)cn2)n[nH]1 : 0.12

Field IC50 (Chk-1 kinase (Homo sapiens (Human))), entry COc1cc(N2CCN(CC(C)C)CC2)ccc1-c1cc(Nc2cnc(C#N)cn2)n[nH]1 : 0.082

Field IC50 (Chk-1 kinase (Homo sapiens (Human))), entry COc1cc(N2CCCNCC2)ccc1-c1cc(Nc2cnc(C#N)cn2)n[nH]1 : 0.12

Field IC50 (Chk-1 kinase (Homo sapiens (Human))), entry COc1cc(CN(C)C2CCOC2)ccc1-c1cc(Nc2cnc(C#N)cn2)n[nH]1 (centres unmarked) : 0.28

Field IC50 (Chk-1 kinase (Homo sapiens (Human))), entry COc1cc(C2CCN(CCO)CC2)ccc1-c1cc(Nc2cnc(C#N)cn2)n[nH]1 : 0.15

Field IC50 (Chk-1 kinase (Homo sapiens (Human))), entry COc1cc(N2CCN(C)CC2)cc(OC)c1-c1cc(Nc2cnc(C#N)cn2)n[nH]1 : 0.14

Field IC50 (Chk-1 kinase (Homo sapiens (Human))), entry CCN1CCC(c2ccc(-c3cc(Nc4cnc(C#N)cn4)n[nH]3)c(OC)c2)C(F)C1 (centres unmarked) [Example 87, hydrochloride] : 0.059
